# TESTED_SYSTEM: PsrA (Pseudomonas aeruginosa PAO1)
# Sequence: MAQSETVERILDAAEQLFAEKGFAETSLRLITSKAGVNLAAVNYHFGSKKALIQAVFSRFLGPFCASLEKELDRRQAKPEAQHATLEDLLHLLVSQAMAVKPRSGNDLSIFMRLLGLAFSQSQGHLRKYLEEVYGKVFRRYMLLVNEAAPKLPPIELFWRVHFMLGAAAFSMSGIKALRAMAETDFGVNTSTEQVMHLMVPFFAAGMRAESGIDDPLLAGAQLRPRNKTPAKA
# METHOD_DESCRIPTION: EMSA

| SEQUENCE_STRING | binding |
| --- | --- |
| GCGCACGGCACGGGGAGTCGTCGTTTTGGAGGTGAGGGATGACGGCTCTGTTTCAGGATATTTTTATAATTATGTGAAAGAAGAGCTTATTTCAACGAAATATGTTTCATATTGCTCGTAAATTCGACGAAAAGAAAATCCGGATATTTACCGGTTATTTAACGTTAATACCAAGGGCCTAATACCAAAGTATTAACGCTGGCATGCCGGCATGTCGTGTTCGGTCGTGGAGCGAGCCGAGCCAGGAACGGTTCTAAGAAACGA (double strand) [PmvfR 17-280 bp] | no binding |
| CCTGTCGGCGTTTCATGGAATTGTCACAACCGCACAGTATCGCTTGCGGTAAAGCGGCCCAGGTGGTCGAACGTTGTCATAGGGAGGGGGATGCTCGATGGCTGAAGGCTGCGTCCTGAACGGTGCTGGCATAACAGATAGGGTTGCCATGATTTTGCCGTATCGGCAAGGCTGCGCGCTTGACAGCGTCATACCCCGGGCCAATTCTGCTGTGATGCATTTTATCGATCAGGGCTTACTGCAATGAGGAATGACGGAGGCTTTTTGCTGTGGTGGGACGGTTTGCGTAGCGAGATG (double strand) [PrhlR 258-544 bp] | no binding |
| CGCTTCCCTTGATCGGGTCAGGTTGCCGCTACTGTGGAAGAAGCGTCGAGGACTCGATAGATAGCGCCCGAGTGTTTCAACTTGTCTTCTGGATGACGTTTTCATCGGGGAAACCTCCCGTCGGTCAGTGAAGCGCAAGGGCTGGCGTGCGAGGGTGGAATCGGCCGCCGGCTCGCTTTCTGCGCGGCGGGCGCACGGCACGGGGAGTCGTCGTTTTGGAGGTGAGGGATGACGGCTCTGTTTCAGGA (double strand) [PmvfR 223-470 bp] | no binding |
| TGGCGATGGGCCGACAGTGAACCCGGGGACCAGGTGTGACTGGGTATTCAGTTCGCATAAAATGTGATCTAGATCACATTTAAACGTTTGCTTACCCTCTAGGACGGGTATCGTACTAGGTGCATCAAACGCTGCGGTCTATTGTTAAGTGGGACTGAAATGTGCCTTTCCGGCACAACGCCAACTCTATAG (double strand) [PlasR 153-344 bp] | binds |
| TGTGCGGTTGTGACAATTCCATGAAACGCCGACAGGCCGCCGCCATGGCCGGGTCCTCGAGCAAGCGCCACAGCGCCCCGCGCAACTCCTGCTCGCGCAACGGCACGCCCAGGCGCATCCCGCAGCCGAGCCGGACCAGCCGTTCGGCATTGTCGAACTGGTCGTGGGCACAGGGCAGCAGCACCTGCGGCACCCCCGCCGCCAAGGCTAGGCTCATGGCGCCGATACCGCCCGGATGGACCAGCCCGGCGCACGATGGCAGCAAGGCTCCCAGTGGCGCGTA (double strand) [PrhlR 11-293 bp] | no binding |
